# measurement_notes: Plasma concentrations of BVDU, BVU and GEM in patients of the dose finding study (HPLC)
# Assay type: in vivo, human
# protocol_conditions: both sexes, human, plasma, po, dose level 10500 mg; 9.0 hr; day 1; oral BVDU; read-out: BVDU plasma concentration, Median
value_type: concentration at 9 h (ng/mL)
// return numeric value only (unit: ng/mL, not printed)

Summary for this molecule, O=c1[nH]c(=O)n([C@H]2C[C@H](O)[C@@H](CO)O2)cc1/C=C/Br [BVDU, (E)-5-(2-bromovinyl)-2′-deoxyuridine] : concentration at 9 h is 1390

---

# measurement_notes: Plasma concentrations of BVDU, BVU and GEM in patients of the dose finding study (HPLC)
# Format: in vivo, human
# protocol_conditions: both sexes, human, plasma, po, dose level 7500 mg; 3.0 hr; day 1; oral BVDU; read-out: BVDU plasma concentration, Mean
value_type: concentration at 3 hr (ng/mL)
Give a bare numeral; the unit ng/mL is implied.

// concentration at 3 hr lookup, compound = O=c1[nH]c(=O)n([C@H]2C[C@H](O)[C@@H](CO)O2)cc1/C=C/Br [BVDU, (E)-5-(2-bromovinyl)-2′-deoxyuridine] , result: 302

---

# measurement_notes: Plasma concentrations of BVDU, BVU and GEM in patients of the dose finding study (HPLC)
# Format: in vivo, human
# protocol_conditions: human, plasma, po, dose level 9000 mg; 5.0 hr; day 1; oral BVDU; read-out: BVDU plasma concentration, Median
value_type: concentration at 5 h (ng/mL)
Numeric only. Scale: ng/mL

Reported concentration at 5 h of O=c1[nH]c(=O)n([C@H]2C[C@H](O)[C@@H](CO)O2)cc1/C=C/Br [BVDU, (E)-5-(2-bromovinyl)-2′-deoxyuridine] : 1020
